Measured values drawn from PubChem BioAssay (Tox21) for this set.

- target under test: Nuclear receptor subfamily 1 group I member 2 (Homo sapiens) (UniProt O75469)
- Sequence (O75469 whole entry, looked up): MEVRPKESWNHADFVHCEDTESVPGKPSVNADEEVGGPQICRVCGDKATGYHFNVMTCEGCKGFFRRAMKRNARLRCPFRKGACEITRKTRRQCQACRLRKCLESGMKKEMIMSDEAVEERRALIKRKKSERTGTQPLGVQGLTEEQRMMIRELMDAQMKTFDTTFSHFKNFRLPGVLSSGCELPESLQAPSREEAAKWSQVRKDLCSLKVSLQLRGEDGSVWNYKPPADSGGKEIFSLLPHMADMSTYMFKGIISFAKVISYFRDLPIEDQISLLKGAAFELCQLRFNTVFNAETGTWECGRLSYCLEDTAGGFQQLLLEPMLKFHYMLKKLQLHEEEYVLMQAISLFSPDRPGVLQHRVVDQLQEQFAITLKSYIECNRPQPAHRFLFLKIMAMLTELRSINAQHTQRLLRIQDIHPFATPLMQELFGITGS
- assay remarks: Human pregnane X receptor (PXR) small molecule agonists, qHTS assay (AID 1346982); further: nearly all actives have a fitted effect of over 35% in size
- condition info: PXR-Luc HepG2, CYP3A4 luciferase reporter, 24 h; series mostly up to 92.4 µM
Inconclusive results are not listed. Active and inactive are the calls of the source. The call rests on the fitted dose curve; in most records, active means well fitted activation curve with a large enough effect in the repeat runs; inconclusive means weak or mixed curves; inactive means no such curve, though single readings can be large or run the other way.
Hi there, use one of these labels in your reply, thanks! active, inactive

Assay outcome for `O=C(O)CCCC(=O)O` : what was it?
inactive

Assay outcome for `CC1=CC(C)(C)Nc2ccccc21` : what was it?
active

Assay outcome for `Cc1ccc(S(=O)(=O)NCl)cc1` : what was it?
inactive

Assay outcome for `Cc1ccc(C)c(O)c1` : what was it?
inactive

Assay outcome for `NC[C@H](O)c1ccc(O)c(O)c1` : what was it?
inactive

Assay outcome for `Cc1ccc2c(c1)C(=O)OC2=O` : what was it?
inactive

Assay outcome for `C1CN(SSN2CCOCC2)CCO1` : what was it?
active

Assay outcome for `CC(C)(Oc1ccc(Cl)cc1)C(=O)O` : what was it?
inactive

Assay outcome for `CC(=O)O[C@]1(C(C)=O)CC[C@H]2[C@@H]3C=C(C)C4=CC(=O)CC[C@]4(C)[C@H]3CC[C@@]21C` : what was it?
active

Assay outcome for `Nc1ccc(O)c(N)c1` : what was it?
inactive

Assay outcome for `C=C1C[C@H]2[C@@H]3C=C(C)C4=CC(=O)CC[C@]4(C)[C@H]3CC[C@]2(C)[C@@]1(OC(C)=O)C(C)=O` : what was it?
active

Assay outcome for `CN(C)/N=N/c1nc[nH]c1C(N)=O` : what was it?
inactive

Assay outcome for `CCCOCCO` : what was it?
inactive

Assay outcome for CC1(C)C(C=C(Cl)Cl)C1C(=O)OCc1cccc(Oc2ccccc2)c1 (stereo not given) : what was it?
active

Assay outcome for `COC(=O)c1ccc(C)cc1` : what was it?
inactive

Assay outcome for `CC(C)[N+](C)(CCOC(=O)C1c2ccccc2Oc2ccccc21)C(C)C` : what was it?
inactive

Assay outcome for `O=C(O)CCCCCCCCCCCC(=O)O` : what was it?
inactive

Assay outcome for `O=C1CCc2ccccc2O1` : what was it?
inactive

Assay outcome for `C=CCNCC=C` : what was it?
inactive

Assay outcome for CCCCCCCCCCC(CO)CCCCCCCC (stereo not given) : what was it?
inactive

---

- assay remarks: qHTS assay to identify small molecule agonists of H2AX - cell viability counter screen (AID 1224847); further: nearly all actives have a fitted effect of over 30% in size
- condition info: CHO-K1 viability, CellTiter-Glo luminescence, 3 h; series mostly up to 154 µM
Results filed as inconclusive are left out. Active and inactive are the calls of the source. Calls come from the whole dose curve.
Hi there, use one of these labels in your reply, thanks! active, inactive

Assay outcome for `O=C(O)CCCC(=O)O` : what was it?
inactive

Assay outcome for `CCCCCCCCCCCCO` : what was it?
inactive

Assay outcome for `Cc1ccc(C)c(O)c1` : what was it?
inactive

Assay outcome for `c1ccc2c(c1)[nH]c1ccccc12` : what was it?
inactive

Assay outcome for `IC(I)I` : what was it?
inactive

Assay outcome for `C=C[C@H]1CN2CC[C@H]1C[C@@H]2[C@@H](O)c1ccnc2ccc(OC)cc12` : what was it?
inactive

Assay outcome for `[Na+]` : what was it?
inactive

Assay outcome for CCCCCC1C(=O)CCC1CC(=O)OC (centres undefined) : what was it?
inactive

Assay outcome for `Nc1cc([N+](=O)[O-])ccc1C(=O)O` : what was it?
inactive

Assay outcome for `Cc1cccc(Nc2ccccc2C(=O)O)c1C` : what was it?
inactive

Assay outcome for `NCCN` : what was it?
inactive

Assay outcome for `CN(C)CCCN1c2ccccc2Sc2ccc(Cl)cc21` : what was it?
active

Assay outcome for `Nc1ccc2c(O)cc(S(=O)(=O)O)cc2c1` : what was it?
inactive

Assay outcome for `CCCCCCOCCOCCO` : what was it?
inactive

Assay outcome for CCCCCCCCCCC(CO)CCCCCCCC (centres undefined) : what was it?
inactive

Assay outcome for `OC[C@@H](O)[C@@H](O[C@@H]1O[C@H](CO)[C@H](O)[C@H](O)[C@H]1O)[C@H](O)[C@@H](O)CO` : what was it?
inactive

Assay outcome for `C=CCOC(=O)C(=C)C` : what was it?
inactive

Assay outcome for `O=[Se](O)O` : what was it?
inactive

Assay outcome for O=C(O)COCCN1CCN(C(c2ccccc2)c2ccc(Cl)cc2)CC1 (centres undefined) : what was it?
inactive

Assay outcome for `O=S1(=O)CCCO1` : what was it?
inactive

Assay outcome for `Nc1cc(Cl)c(N)c(Cl)c1` : what was it?
inactive

Assay outcome for `OC[C@H]1O[C@@H]2O[C@H]3[C@H](O)[C@@H](O)[C@@H](O[C@H]4[C@H](O)[C@@H](O)[C@@H](O[C@H]5[C@H](O)[C@@H](O)[C@@H](O[C@H]6[C@H](O)[C@@H](O)[C@@H](O[C@H]7[C@H](O)[C@@H](O)[C@@H](O[C@H]1[C@H](O)[C@H]2O)O[C@@H]7CO)O[C@@H]6CO)O[C@@H]5CO)O[C@@H]4CO)O[C@@H]3CO` : what was it?
inactive

Assay outcome for `O=C1CCc2ccccc2O1` : what was it?
inactive

Assay outcome for `c1ccc2c(c1)ccc1ncccc12` : what was it?
inactive
